Experiment: Determination of intrinsic clearance with human liver microsomes
Type: in vitro ADME
Details: human liver microsomes 1 mg protein/ml, NADPH, pH 7.4; CLint=ln 2/T1/2
Description: Determination of Intrinsic Clearance with Human Liver Microsomes Frozen human liver microsomes (BD Gentest, Oxford) were defrosted and were then diluted with 0.1 M pH 7.4 phosphate buffer at 4° C. to 1 mg protein/ml. […] 50 μL Aliquots of the mixtures were removed at measured intervals and were immediately quenched by addition to 100 μL of methanol cooled in ice. […] The supernatant solution was analysed using quantitative LCMS for the presence of test compound. […]
OUTCOME_MEASURE: CLint scaled at 1 µM

Worked set:
O=C(CSc1ccc(C(=O)O)cc1)NC1CCN(Cc2ccc(Cl)c(Cl)c2)CC1 [Example 7]
< 3 mL/min/kg
O=C(CSc1ccc(C(=O)O)cc1CN1CCOCC1)NC1CCN(Cc2ccc(Cl)c(Cl)c2)CC1 [Example 18]
30 mL/min/kg
O=C(CSc1cccc(C(=O)O)c1)NC1CCN(Cc2ccc(Cl)c(Cl)c2)CC1 [Example 4]
< 3 mL/min/kg

Next up:
Need CLint scaled at 1 µM, item O=C(CSc1ccccc1C(=O)O)NC1CCN(Cc2ccc(Cl)c(Cl)c2)CC1 [Example 1]
< 3 mL/min/kg

----------
pKi for assorted molecules
Biological target: human recombinant CCR3 receptors (Homo sapiens)
Sequence (P51677 whole entry): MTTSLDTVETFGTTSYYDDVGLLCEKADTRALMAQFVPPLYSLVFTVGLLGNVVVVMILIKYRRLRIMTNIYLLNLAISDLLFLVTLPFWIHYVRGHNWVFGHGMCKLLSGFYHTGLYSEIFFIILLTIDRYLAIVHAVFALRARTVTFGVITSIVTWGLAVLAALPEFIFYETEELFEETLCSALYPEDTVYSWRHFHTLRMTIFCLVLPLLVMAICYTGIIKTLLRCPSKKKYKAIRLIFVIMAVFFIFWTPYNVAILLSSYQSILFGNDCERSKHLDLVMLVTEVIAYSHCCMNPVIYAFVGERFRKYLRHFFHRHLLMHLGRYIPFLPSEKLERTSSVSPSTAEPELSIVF
Test: Compound affinity at human recombinant CCR3 receptors by competition of [3H]-4-(2,4-dichloro-3-methylphenoxy)-1'-[4-(methylsulfonyl)benzoyl]-1,4'-bipiperidine, CHO-K1 cell membranes
Details: mean pKi (Cheng-Prussof correction of pIC50), minimum of 2 experiments, recombinant human CCR3, 2 nM radioligand, 2 h at 37° C.
Excerpt: Determination of Compound Affinity at Human Recombinant CCR3 Receptors Assessed By Competition Of [^3H]-4-(2,4-dichloro-3-methylphenoxy)-1′-[4-(methylsulfonyl)benzoyl]-1,4′-bipiperidine for CHO—K1 Cell Membranes In Vitro […]
Give only the number. pKi is defined as minus log10 of concentration in molar units.

The following molecules have reported results that may help.
O=C(CSc1ccccc1C(=O)O)NC1CCN(Cc2ccc(Cl)c(Cl)c2)CC1 [Example 1]
6.60
O=C(CSc1cccc(C(=O)O)c1)NC1CCN(Cc2ccc(Cl)c(Cl)c2)CC1 [Example 4]
7.90

Recorded pKi of O=C(CSc1ccc(C(=O)O)cc1)NC1CCN(Cc2ccc(Cl)c(Cl)c2)CC1 [Example 7] , please.
8.20

So what does the record say about pKi for O=C(CSc1ccc(C(=O)O)cc1CN1CCOCC1)NC1CCN(Cc2ccc(Cl)c(Cl)c2)CC1 [Example 18] ?
7.90
